Assay: Partition coefficient (logP)
Format: physicochemical
Settings: octanol/water
The threshold is 0.9. Values of logP beneath it are tagged Fulfilled; values meeting or exceeding it are tagged Not fulfilled.

compound	cat
COC(=O)C(C)NP(=O)(OCC1C=CC(n2cc(C)c(=O)[nH]c2=O)O1)Oc1ccc(CC(NC(=O)OC(C)(C)C)C(=O)OC)cc1 (stereo not drawn)	Not fulfilled
COC(=O)C(C)NP(=O)(OC[C@@H]1C=C[C@H](n2cc(C)c(=O)[nH]c2=O)O1)Oc1ccc(OC)cc1 (stereo partly drawn)	Not fulfilled
COCCOc1ccc(OP(=O)(NC(C)C(=O)OC)OCC2C=CC(n3cc(C)c(=O)[nH]c3=O)O2)cc1 (stereo not drawn)	Fulfilled
COCCOCCOc1ccc(OP(=O)(NC(C)C(=O)OC)OCC2C=CC(n3cc(C)c(=O)[nH]c3=O)O2)cc1 (stereo not drawn)	Fulfilled
COC(=O)C(N)Cc1ccc(OP(=O)(NC(C)C(=O)OC)OCC2C=CC(n3cc(C)c(=O)[nH]c3=O)O2)cc1 (stereo not drawn)	Fulfilled
COCCOCCOCCOc1ccc(OP(=O)(NC(C)C(=O)OC)OCC2C=CC(n3cc(C)c(=O)[nH]c3=O)O2)cc1 (stereo not drawn)	Fulfilled
CCOCCOc1ccc(OP(=O)(NC(C)C(=O)OC)OCC2C=CC(n3cc(C)c(=O)[nH]c3=O)O2)cc1 (stereo not drawn)	Not fulfilled
COC(=O)C(C)NP(=O)(OC[C@@H]1C=C[C@H](n2cc(C)c(=O)[nH]c2=O)O1)Oc1ccccc1 (stereo partly drawn)	Not fulfilled
